Listed below: IC50 values for each entry.
System: MV4;11 cells
Experiment: Cell viability assay (CellTiter-Glo) in MV4;11 cells
Format: cell-based
Conditions: Homo sapiens, MV4-11, 72 h, MV4;11 cells, compound alone, three days; read-out: MV4; 11 IC50

Checklist item: IC50 tested on MV4;11 cells, entry Cn1ncc2cnc(-c3cn([C@H]4C[C@H](CNc5ccc6c(c5)CN(C5CCC(=O)NC5=O)C6=O)C4)nc3C3CC3)cc21 (stereo partly shown) , value?
< 0.01 µM

Then this compound: O=C1CCC(N2C(=O)c3ccc(NC[C@H]4C[C@H](n5cc(NC6CCOCC6)c(C6CC6)n5)C4)cc3C2=O)C(=O)N1 (stereo partly shown)
> 1 µM

Then this compound: Nc1ccnc2c1c(C1CC1)nn2[C@H]1C[C@H](CNc2ccc3c(c2)C(=O)N(C2CCC(=O)NC2=O)C3=O)C1 (stereo partly shown)
> 1 µM

Then this compound: Cc1nc(-c2cn([C@H]3C[C@H](COc4ccc5c(c4)CN(C4CCC(=O)NC4=O)C5=O)C3)nc2C2CC2)ccc1F (stereo partly shown)
> 1 µM

---

System: MOLM-13 cells
Assay: Cell viability assay (CellTiter-Glo) in MOLM-13 cells
Assay type: cell-based
Details: MOLM-13 cells, with gilteritinib, three days; read-out: MOLM-13 IC50 (nM) + 10 nM Gil
Value Type: IC50

>>> val("O=C1CCC(N2C(=O)c3ccc(NC[C@H]4C[C@H](n5cc(-c6ncccc6[C@H]6C[C@H](O)C6)c(C6CC6)n5)C4)cc3C2=O)C(=O)N1 (stereo partly drawn)")
"< 10 nM"
>>> val("O=C1CCC(N2C(=O)c3ccc(NC[C@H]4C[C@H](n5cc(-c6cc7c(cn6)cnn7CC(F)(F)F)c(C6CC6)n5)C4)cc3C2=O)C(=O)N1 (relative stereo)")
"< 10 nM"
>>> val("O=C1CCC(N2C(=O)c3ccc(NC[C@H]4C[C@H](n5cc(-c6ccc7cc[nH]c7n6)c(C6CC6)n5)C4)cc3C2=O)C(=O)N1 (stereo partly drawn)")
"< 10 nM"
>>> val("O=C1CCC(N2C(=O)c3ccc(NC[C@H]4C[C@H](n5nc(C6CC6)cc5Cc5ccccc5)C4)cc3C2=O)C(=O)N1 (stereo partly drawn)")
"10 to 100 nM"
>>> val("O=C1CCC(N2C(=O)c3ccc(NC[C@H]4C[C@H](n5cc(-c6ncccc6[C@H]6C[C@@H](O)C6)c(C6CC6)n5)C4)cc3C2=O)C(=O)N1 (stereo partly drawn)")
"10 to 100 nM"

--- query ---
Report IC50 for COC1CCCCC1c1cn([C@H]2C[C@H](CNc3ccc4c(c3)C(=O)N(C3CCC(=O)NC3=O)C4=O)C2)nc1C1CC1 (stereo partly drawn) please.
10 to 100 nM

---

Listed below: pIC50 values for each entry.
Tested on: MV4;11 cells
Experiment: Cell viability assay (CellTiter-Glo) in MV4;11 cells
Type: cell-based
Conditions: Homo sapiens, MV4-11, 72 h, MV4;11 cells, compound alone, three days; read-out: MV4; 11 IC50
pIC50: −log10 of the molar value.

Reference set, count: 6
>>> val("Cc1nc(-c2cn(CC3CC3CNc3ccc4c(c3)C(=O)N(C3CCC(=O)NC3=O)C4=O)nc2C2CC2)ccc1F (centres unmarked) [GS-645]")
"< 6.00"
>>> val("CC(C)n1ccc2nc(-c3cn([C@H]4C[C@H](CNc5ccc6c(c5)C(=O)N(C5CCC(=O)NC5=O)C6=O)C4)nc3C3CC3)ccc21 (some centres unmarked) [GS-696]")
"6.00 to 7.00"
>>> val("CC(C)n1cc2ccnc(-c3cn([C@H]4C[C@H](CNc5ccc6c(c5)C(=O)N(C5CCC(=O)NC5=O)C6=O)C4)nc3C3CC3)c2n1 (some centres unmarked) [GS-660]")
"> 8.00"
>>> val("O=C1CCC(N2C(=O)c3ccc(NC[C@H]4C[C@H](n5cc(-c6cnc7c(NC(CO)CO)cccc7n6)c(C6CC6)n5)C4)cc3C2=O)C(=O)N1 (some centres unmarked) [GS-710]")
"7.00 to 8.00"
>>> val("O=C1CCC(N2C(=O)c3ccc(NC[C@H]4C[C@H](n5cc(-c6cc7nn([C@H]8CC[C@H](O)CC8)cc7cn6)c(C6CC6)n5)C4)cc3C2=O)C(=O)N1 (some centres unmarked) [GS-789]")
"> 8.00"
>>> val("Cc1cccc2cnn([C@H]3C[C@H](CNc4ccc5c(c4)C(=O)N(C4CCC(=O)NC4=O)C5=O)C3)c12 (some centres unmarked) [GS-693]")
"< 6.00"

Report pIC50 for O=C1CCC(N2C(=O)c3ccc(NC[C@H]4C[C@H](n5cc(C6CCC(O)CC6)c(C6CC6)n5)C4)cc3C2=O)C(=O)N1 (some centres unmarked) [GS-701] please.
7.00 to 8.00

Then this compound: Cn1ncc2ccnc(-c3cn([C@H]4C[C@H](CNc5ccc6c(c5)C(=O)N(C5CCC(=O)NC5=O)C6=O)C4)nc3C3CC3)c21 (some centres unmarked) [GS-649]
> 8.00

Then this compound: CC(C)n1ccc2c(-c3cn([C@H]4C[C@H](CNc5ccc6c(c5)C(=O)N(C5CCC(=O)NC5=O)C6=O)C4)nc3C3CC3)ncc(F)c21 (some centres unmarked) [GS-769]
> 8.00

Then this compound: Cc1cc(F)cnc1-c1cn([C@H]2C[C@H](CNc3ccc4c(c3)CN(C3CCC(=O)NC3=O)C4=O)C2)nc1C(F)F (some centres unmarked) [GS-668]
> 8.00

Then this compound: O=C1CCC(N2C(=O)c3ccc(NC[C@H]4C[C@H](n5cc(-c6cnc7ccc(C8CC(O)C8)cc7n6)c(C6CC6)n5)C4)cc3C2=O)C(=O)N1 (some centres unmarked) [GS-764]
> 8.00

The reported measurements were obtained from patent US20250221988A1.
